Exercise: state measured AUC of viability dose-response curve for each of the compounds provided.
- System: NOMO1
- ASSAY_PROTOCOL: AUC of viability dose-response curve (% viability x log10 dose units); higher = less sensitive
- RUN_CONDITIONS: RPMI 5 mM glucose + 10% FBS; 48 h

State AUC of viability dose-response curve on NOMO1. Entry: CN(C)/N=N/c1nc[nH]c1C(N)=O
435

State AUC of viability dose-response curve on NOMO1. Entry: NC(=O)c1ncn([C@@H]2O[C@H](CO)[C@@H](O)[C@H]2O)c1O
468

State AUC of viability dose-response curve on NOMO1. Entry: NC(=O)NO
340

State AUC of viability dose-response curve on NOMO1. Entry: CC(C)[C@H](N)C(=O)OCCOC[N]1C=NC2=C1\N=C(N)/NC2=O
459

State AUC of viability dose-response curve on NOMO1. Entry: CC(C)(O)c1cc2nc(-c3cnc(N)nc3)nc(N3CCOCC3)c2s1
402

State AUC of viability dose-response curve on NOMO1. Entry: CCN(CC)C(=O)C1=CC=C(C=C1)C/2=C/C3(CCNCC3)OC4=CC=CC(=C24)O
329

State AUC of viability dose-response curve on NOMO1. Entry: CCNC(=O)Nc1ccc2ncc(Nc3ccc(C)cc3)nc2n1
453

Where these numbers come from: the supplement of paper PMC11451515
